Numbers sourced from paper PMC7126328.

System: E. coli/pET36b-gfp
Settings: 150 μM
VALUE KIND: Toxic and mutagenic effects on indicator cells E. coli/pET36b-gfp (in words)

- RECORD SMILES: "CC[N+](CC)(CCCCCCCCC[N+](CC)(CC)CC/N=C1\\C[C@H]2CC[C@]1(C)C2(C)C)CC/N=C1\\C[C@H]2CC[C@]1(C)C2(C)C"
  EXPERIMENTAL RESULT: "highly toxic"
- RECORD SMILES: "CC[N+](CC)(CCCCCCCCCCCC[N+](CC)(CC)CC/N=C1\\C[C@H]2CC[C@]1(C)C2(C)C)CC/N=C1\\C[C@H]2CC[C@]1(C)C2(C)C"
  EXPERIMENTAL RESULT: "highly toxic"
- RECORD SMILES: "CC[N+](CC)(CCCCCCCC[N+](CC)(CC)CC/N=C1\\C[C@H]2CC[C@]1(C)C2(C)C)CC/N=C1\\C[C@H]2CC[C@]1(C)C2(C)C"
  EXPERIMENTAL RESULT: "highly toxic"
